system-under-test: Signal transducer and activator of transcription 3 (Homo sapiens)
Sequence (P40763 whole entry): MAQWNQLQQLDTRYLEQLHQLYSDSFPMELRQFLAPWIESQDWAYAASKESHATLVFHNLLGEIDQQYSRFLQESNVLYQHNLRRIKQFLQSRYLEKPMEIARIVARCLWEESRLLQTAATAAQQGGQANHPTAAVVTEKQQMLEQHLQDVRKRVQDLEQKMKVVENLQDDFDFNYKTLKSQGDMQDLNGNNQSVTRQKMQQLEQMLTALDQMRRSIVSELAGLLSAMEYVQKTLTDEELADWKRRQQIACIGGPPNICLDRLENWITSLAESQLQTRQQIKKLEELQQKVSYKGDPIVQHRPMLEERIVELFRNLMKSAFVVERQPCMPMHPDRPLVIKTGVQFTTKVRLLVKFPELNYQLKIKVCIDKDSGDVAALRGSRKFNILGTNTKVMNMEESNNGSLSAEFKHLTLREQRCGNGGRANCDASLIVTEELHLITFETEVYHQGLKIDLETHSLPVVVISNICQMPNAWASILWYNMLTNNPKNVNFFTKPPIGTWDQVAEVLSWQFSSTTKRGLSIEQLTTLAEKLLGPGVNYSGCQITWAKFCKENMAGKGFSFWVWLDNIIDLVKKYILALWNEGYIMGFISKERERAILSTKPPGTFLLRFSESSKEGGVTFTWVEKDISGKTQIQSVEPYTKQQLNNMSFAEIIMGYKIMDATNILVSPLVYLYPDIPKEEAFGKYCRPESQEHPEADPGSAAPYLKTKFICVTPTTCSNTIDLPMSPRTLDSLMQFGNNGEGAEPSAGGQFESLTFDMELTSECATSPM
assay-name: Inhibition of IFN gamma-induced STAT3 (unknown origin) activation in HeLa-STAT3-Luc cells after 6 hrs by luciferase reporter gene assay
measurement-label: pIC50
Conceptually, pIC50 converts a concentration in mol/L into minus its log10.

Which pIC50 value belongs to CC(C)=CC(=O)C[C@H](C)c1ccc(C)cc1 [(+)-(S)-ar-turmerone] ?
4.85
